Just for reference, ChEMBL document CHEMBL3763144 is where these values come from.

experiment: Half life in C57BL/6 mouse at 20 mg/kg, iv by UPLC-MS analysis; assay type: ADME, organism-based; details: in vivo

{"columns": ["Smiles Text", "Measure Unit", "half-life"],
 "data": [
  ["COCCOc1cc2c(-n3nc(-c4ccccn4)nc3N)ncnc2cc1OC", "h", 19]
]}
